# PROTOCOL: recombinant barcode read abundance after kanamycin selection (control-corrected) (log10(CPM+1)); higher = more efficient recombination; sequences stand for … in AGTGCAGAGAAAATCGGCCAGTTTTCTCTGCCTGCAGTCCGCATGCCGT…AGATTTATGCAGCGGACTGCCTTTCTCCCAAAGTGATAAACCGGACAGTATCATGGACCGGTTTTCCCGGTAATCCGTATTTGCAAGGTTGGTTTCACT; site = the 11-nt target
recombinant barcode read abundance (log10) overview
QUANTITY KIND: recombinant barcode read abundance (log10)

                                 seq_string  number
0  CACCACTCTTGGGTTCTAACCTGTTGCCT (site TACCACTCTAG)   0.195
1  CATTGCCCTTGGGTTCTAACCTGTTGCCT (site CCTTGCCCTAG)     0.2
2  GACGCCTCTTGGGTTCTAACCTGTTGCCT (site CACGCCTCTAG)   0.202

---

# PROTOCOL: recombinant UMI read abundance after kanamycin selection (control-corrected) (log10(CPM+1)); higher = more efficient recombination; extreme values may be limits of the assay; sequences stand for … in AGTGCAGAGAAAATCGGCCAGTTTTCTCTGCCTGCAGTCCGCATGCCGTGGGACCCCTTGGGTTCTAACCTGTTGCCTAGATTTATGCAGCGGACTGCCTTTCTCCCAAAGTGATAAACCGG…AGGTTGGTTTCACT; site = the 11-nt donor
Outcome: satisfied for recombinant UMI read abundance (log10) of at least 0.5; not satisfied for anything lower.

>>> df
                                  seq_string    group_label
 0  ACATCTACATGGACCGGTTTTCCCGGTAATCCGTATTTGGG (site ACATCTACTCA)  not satisfied
 1  CCTGGCTCATGGACCGGTTTTCCCGGTAATCCGTATTTGCA (site CCTGGCTCTTG)  not satisfied
 2  TAAGAGACATGGACCGGTTTTCCCGGTAATCCGTATTTGCG (site TTAGAGACTCG)      satisfied
 3  TAAACTCCATGGACCGGTTTTCCCGGTAATCCGTATTTGTA (site TAAAATCCTTA)      satisfied
 4  ATAGAGACATGGACCGGTTTTCCCGGTAATCCGTATTTGGT (site ATTGAGACTAC)      satisfied
 5  AATTATGCATGGACCGGTTTTCCCGGTAATCCGTATTTGGA (site AATTCTGCTTC)  not satisfied
 6  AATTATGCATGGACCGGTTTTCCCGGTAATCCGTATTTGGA (site AATTATTCTTC)      satisfied
 7  CCCCACACATGGACCGGTTTTCCCGGTAATCCGTATTTGTA (site CGCCACACTTA)  not satisfied
 8  TATTTGACATGGACCGGTTTTCCCGGTAATCCGTATTTGTG (site TATTTGACTCA)  not satisfied
 9  ATCCTAGCATGGACCGGTTTTCCCGGTAATCCGTATTTGTT (site AACCTAGCTAA)  not satisfied
10  CAAGCGCCATGGACCGGTTTTCCCGGTAATCCGTATTTGGG (site CAAGCGCCTCT)  not satisfied
11  CTTCTCTCATGGACCGGTTTTCCCGGTAATCCGTATTTGTG (site CTTCTCTCTCA)  not satisfied
12  CCCATGTCATGGACCGGTTTTCCCGGTAATCCGTATTTGTC (site CCCATATCTGA)  not satisfied
13  GCGAGGCCATGGACCGGTTTTCCCGGTAATCCGTATTTGGG (site GCGAAGCCTCC)  not satisfied
14  TCCGCTGCATGGACCGGTTTTCCCGGTAATCCGTATTTGAA (site TCCGCTGCTTT)  not satisfied
15  CGAAGTCCATGGACCGGTTTTCCCGGTAATCCGTATTTGCG (site CGAAGTCCTCG)      satisfied
16  GTATAGACATGGACCGGTTTTCCCGGTAATCCGTATTTGCC (site GCATAGACTGG)      satisfied
17  GCAAGAACATGGACCGGTTTTCCCGGTAATCCGTATTTGAG (site GCAAGAACTCT)      satisfied
18  GGCTAGACATGGACCGGTTTTCCCGGTAATCCGTATTTGCC (site GGCTAGACTGG)      satisfied
19  CGTTAGACATGGACCGGTTTTCCCGGTAATCCGTATTTGTG (site CGTTAGACTCC)  not satisfied
20  CATAGCGCATGGACCGGTTTTCCCGGTAATCCGTATTTGTC (site CATAGCGCTGA)      satisfied
21  GGTCCAACATGGACCGGTTTTCCCGGTAATCCGTATTTGTA (site GGTCCAGCTTA)  not satisfied
